koff values for the binders below.
tgt: T1, His-tagged CEACAM1 (human, UniProt P13688 35-428)
T1 construct: 45 kDa SPR analyte; also called CEACAM1-HIS; CEACAM1 analyte
T1 sequence: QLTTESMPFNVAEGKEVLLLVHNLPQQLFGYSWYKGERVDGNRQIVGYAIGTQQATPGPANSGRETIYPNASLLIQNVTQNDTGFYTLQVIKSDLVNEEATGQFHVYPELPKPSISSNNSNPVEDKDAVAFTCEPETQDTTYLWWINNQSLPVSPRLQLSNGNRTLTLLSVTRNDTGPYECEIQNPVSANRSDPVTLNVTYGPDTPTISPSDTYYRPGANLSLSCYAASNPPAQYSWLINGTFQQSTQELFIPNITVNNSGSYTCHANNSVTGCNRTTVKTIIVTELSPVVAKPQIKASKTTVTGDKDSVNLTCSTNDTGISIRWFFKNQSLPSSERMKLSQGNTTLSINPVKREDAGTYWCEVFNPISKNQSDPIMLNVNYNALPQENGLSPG
test details: SPR single-cycle, supernatant IgG captured
Answer format: numeric, s⁻¹ implied, no suffix.

CP08B06/Vκ8 S29A (antibody, IgG4, V domains shown, IgG4 (S241P), kappa) VH: EVQLLESGGGLVQPGGSLRLSCAASGFSFNSHAISWVRQAPGKGLEWVATISSGGTYTYYPDSVKGRFTISRDNSKNTLYLQMNSLKAEDTAMYYCARHDFDYDAAWFAYWGQGTLVTVSS VL: EIVLTQSPATLSLSPGERATLSCRANSAVSYMYWYQQKPGQAPRPWIYLTSNRATGVPARFSGSGSGTDYTLTISSLEPEDFAVYYCQQWSSNPPTFGQGTKLEIK :: 0.044
CP09G03/Vκ8 S29A (antibody, IgG4, V domains shown, IgG4 (S241P), kappa) VH: EVQLLESGGGLVQPGGSLRLSCAASGFTFNAHAMSWVRQAPGKGLEWVATISSGGTYTYYPDSVKGRFTISRDNSKNTLYLQMNSLKAEDTAMYYCARHDFDYDAAWFAYWGQGTLVTVSS VL: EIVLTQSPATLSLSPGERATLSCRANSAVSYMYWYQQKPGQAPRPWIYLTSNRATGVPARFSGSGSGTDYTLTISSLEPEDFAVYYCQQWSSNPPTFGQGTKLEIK :: 0.038
CP08C04/Vκ8 S29A (antibody, IgG4, V domains shown, IgG4 (S241P), kappa) VH: EVQLLESGGGLVQPGGSLRLSCAASGFTFSSHGMSWVRQAPGKGLEWVATISSGGTYTYYPDSVKGRFTISRDNSKNTLYLQMNSLKAEDTAMYYCARHDFDYDAAWFAYWGQGTLVTVSS VL: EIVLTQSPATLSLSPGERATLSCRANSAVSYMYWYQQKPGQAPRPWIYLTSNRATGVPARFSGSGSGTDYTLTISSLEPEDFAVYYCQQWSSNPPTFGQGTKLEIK :: 0.26
CP08B11/Vκ8 S29A (antibody, IgG4, V domains shown, IgG4 (S241P), kappa) VH: EVQLLESGGGLVQPGGSLRLSCAASGFTFTNHGMSWVRQAPGKGLEWVATISSGGTYTYYPDSVKGRFTISRDNSKNTLYLQMNSLKAEDTAMYYCARHDFDYDAAWFAYWGQGTLVTVSS VL: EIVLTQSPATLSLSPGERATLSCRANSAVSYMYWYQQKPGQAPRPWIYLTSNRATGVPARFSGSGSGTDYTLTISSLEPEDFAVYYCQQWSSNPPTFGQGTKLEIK :: 0.059

Kindly note the recorded koff for VH1/CP08G01 (antibody, IgG4, V domains shown, IgG4 (S241P), kappa) VH: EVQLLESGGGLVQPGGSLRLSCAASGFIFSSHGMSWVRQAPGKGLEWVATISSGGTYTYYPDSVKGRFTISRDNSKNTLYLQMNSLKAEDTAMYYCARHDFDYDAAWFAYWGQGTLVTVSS VL: EIVLTQSPATLSLSPGERATLSCRANSAVSYMYWYQQKPGQAPRPWIYLTSNRATGVPARFSGSGSGTDYTLTISSLEPEDFAVYYCQQNTNLPFTFGQGTKLEIK , which is 0.047

koff recorded for this binder, CP08B04/Vκ8 S29A (antibody, IgG4, V domains shown, IgG4 (S241P), kappa) VH: EVQLLESGGGLVQPGGSLRLSCAASGFIFSSHGMSWVRQAPGKGLEWVATISSGGTYTYYPDSVKGRFTISRDNSKNTLYLQMNSLKAEDTAMYYCARHDFDYFPAWFALWGQGTLVTVSS VL: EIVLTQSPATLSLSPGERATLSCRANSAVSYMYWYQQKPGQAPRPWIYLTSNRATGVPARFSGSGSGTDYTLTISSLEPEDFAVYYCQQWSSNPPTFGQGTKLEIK , is 0.049

Reported koff ( VH1/CP08E05 (antibody, IgG4, V domains shown, IgG4 (S241P), kappa; also called Parent VH/CP08E05) VH: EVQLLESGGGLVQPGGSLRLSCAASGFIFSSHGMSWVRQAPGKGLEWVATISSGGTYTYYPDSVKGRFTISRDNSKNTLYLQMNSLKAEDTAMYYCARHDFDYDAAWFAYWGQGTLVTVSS VL: EIVLTQSPATLSLSPGERATLSCRANSAVSYMYWYQQKPGQAPRPWIYLTSNRATGVPARFSGSGSGTDYTLTISSLEPEDFAVYYCQQWTTNPPTFGQGTKLEIK ) = 0.034

koff recorded for this binder, CP08D01/Vκ8 S29A (antibody, IgG4, V domains shown, IgG4 (S241P), kappa) VH: EVQLLESGGGLVQPGGSLRLSCAASGFTFNAHGMSWVRQAPGKGLEWVATISSGGTYTYYPDSVKGRFTISRDNSKNTLYLQMNSLKAEDTAMYYCARHDFDYDAAWFAYWGQGTLVTVSS VL: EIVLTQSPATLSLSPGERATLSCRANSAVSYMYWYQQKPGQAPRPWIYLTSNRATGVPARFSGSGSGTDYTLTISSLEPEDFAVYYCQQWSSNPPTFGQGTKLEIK , is 0.043
